experiment: NCI Yeast Anticancer Drug Screen. Data for the cln2 rad14 strain (AID 165);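 also: 0% = growth equal to vehicle treated cultures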
condition.summary: S. cerevisiae cln2 rad14 strain, at 50.0 µM, hits give high values
About 79,000 compounds went through this panel and 15% of them were active in at least one assay; those are over-represented in the sample as a whole.
Kindly state growth inhibition for each of the entries shown.
Report as a plain number; the unit % is understood.

In: For the molecule c1cc2nc(c1)CSCCCCCCCSC2 , what growth inhibition is on record?
Out: -3.45

In: Given COc1cc(C2C3=C(COC3=O)Oc3cc4c(cc32)OCO4)cc(OC)c1OC(C)=O (stereo not given) , state its recorded growth inhibition.
Out: 16.1

In: What does the data say about its growth inhibition? Entry: Cc1cc(C)nc(NC(=O)COc2ccc(Cl)cc2)c1
Out: -39.7

In: Need growth inhibition, item CC(C)(O)C(C)(O)C#CC(C)(O)C(C)(C)O (stereo not given)
Out: -15.2

In: Sample C=CCC[P+](c1ccccc1)(c1ccccc1)c1ccccc1 — what was its growth inhibition?
Out: -3.4

In: Entry Cc1ccc(Cl)cc1NC(=O)C(C)Oc1ccccc1 (stereo not given) has what growth inhibition?
Out: -4.75

In: Which growth inhibition value belongs to CCCCCC(CCCCC)c1ccccn1 ?
Out: 22.4

In: Give its growth inhibition value. Item: CC1([N+](=O)[O-])COC2(CCCC2)OC1
Out: -21.8

In: # get_value(readout='growth inhibition', item= CC1(C)C/C(=C\c2ccc([N+](=O)[O-])cc2)C(=O)c2ccccc21 )
Out: 40.3

In: Which growth inhibition is listed for CC(NCc1cc(O)c(CNC(C)c2ccccc2)cc1O)c1ccccc1 (stereo not given) ?
Out: 25.2

In: Consider the molecule O=[N+]([O-])c1ccc(OCc2ccccc2)c(Cl)c1 and give its measured growth inhibition.
Out: -13.8

In: What growth inhibition value was documented for this molecule, O=C(O)/C(=C\c1ccccc1Cl)S(=O)(=O)c1ccccc1 ?
Out: -0.35

In: Would you kindly share the measured growth inhibition for Cc1cc(C)c2c(c1)CC(C)(C)C(=O)OC2=O ?
Out: 2.4

In: I would be grateful if you could share the reported growth inhibition for CC(NC(=O)C(C)NC(=O)C(N)CCP(C)(=O)O)C(=O)O (stereo not given) .
Out: -8.2

In: What measured growth inhibition goes with CCOc1ccc(OCC)c(NC(C)=O)c1 ?
Out: 5.5

In: Look up growth inhibition: O=C1NC(=O)C(c2cccc(F)c2)N1 (stereo not given)
Out: -9

In: // returns reported growth inhibition for input COc1ccc(C2C(Cl)C(=O)N2NC(=O)Cc2ccccc2)cc1 (stereo not given)
Out: 8.95

In: GET /values?readout=growth inhibition&item= O=C(NCC1CC1)Nc1cccc2ccccc12
Out: -54.7

In: Record request: growth inhibition value, item CCSC1(SCC)C(=O)OC2=C(CCCCC2)C1N(C)c1ccccc1 (stereo not given)
Out: -22.6

In: So what does the record say about growth inhibition for Nc1ccccc1Br ?
Out: -31

In: Entry N#CC1(Cl)CC2CC1C1N=NN(c3ccccc3)C21 (stereo not given) : reported growth inhibition = ?
Out: -58

In: So what does the record say about growth inhibition for COc1ccc(/C=C2\SC(c3ccc(OC)cc3)N(NC(=O)Cc3ccccc3)C2=O)cc1 (stereo not given) ?
Out: -63.2

In: Report growth inhibition for CC1(c2ccccc2)N=C(C(N)=O)c2[nH]cnc2N1 (stereo not given) please.
Out: 1.85

In: Give the measured growth inhibition of COCC(=O)c1ccc(C#N)cc1 .
Out: -39

In: Give its growth inhibition value. Item: O=C(/C=C(\c1ccccc1)C1C2C=CC(C2)C1c1ccccc1)c1ccccc1 (stereo not given)
Out: 49
